// endpoint MIC / system Serratia No. 72

| compound | quantity.unit | MIC |
| --- | --- | --- |
| CC(=O)OCC1=C(C(=O)O)N2C(=O)C(NC(=O)[C@H](NC(=O)c3cnc4cccnc4c3O)c3ccccc3)C2SC1 (stereo partly drawn) | µg/mL | 50 |
| Cn1nnnc1SCC1=C(C(=O)O)N2C(=O)C(NC(=O)[C@H](NC(=O)c3cnc4cccnc4c3O)c3ccccc3)C2SC1 (stereo partly drawn) | µg/mL | 12.5 |
| CC(=O)OCC1=C(C(=O)O)N2C(=O)C(NC(=O)[C@H](NC(=O)c3cnc4ccccc4c3O)c3ccccc3)C2SC1 (stereo partly drawn) [Compound (A), reference compound] | µg/mL | 100 |
